Just for reference, patent US10329262B2 is where these values come from.

Experiment: in vivo
Details: mouse, in vivo, iv, 10 mg/kg
Method: We conducted first fast PK studies (n=2 mice per time point, 5 time points) dosing the compounds iv, followed by full PK studies for selected compounds (n=3 mice per time point, 10-12 time points per route of administration, iv and po). A single dose of compound 2 was administered to mice (n=3 per time point) by tail vein injection or by oral gavage at 10 mg/kg. […] The supernatant was analyzed by reverse-phase UPLC. […]
attribute.measured: clearance (mL/min/kg)
One number for each entry, in mL/min/kg.

For this molecule ( N#Cc1ccc(/C=C/c2nc3ccccc3c(=O)n2-c2cccc(C(=O)O)c2)cc1.[Na] [Compound 2] ), measured clearance is 7.07

---

Can you tell me In vitro AB activity (MIC) for the items I'm about to list?
Tested on: S. aureus NRS100
Test: MIC, CLSI broth microdilution, S. aureus NRS100
Type: cell-based, Staphylococcus aureus
Conditions: Table 2.1, S. aureus NRS100
Protocol: MICs were evaluated following the CLSI microdilution method in BBL™ Mueller-Hinton II broth (Wikler et al., Clinical Laboratory Standards Institute Document M7-A7, 29 (2009)). Briefly, two-fold serial dilutions of compound were prepared in triplicate in 96-well plates and inoculated with 5×10^5 cfu/mL of the bacterial suspension. Plates were incubated at 37° C. for 16-20 hours.
Give bare numbers, in µg/mL.

For this molecule ( `Cc1onc(-c2ccccc2)c1C(=O)N[C@@H]1C(=O)N2[C@@H]1SC(C)(C)[C@@H]2C(=O)O` ), measured In vitro AB activity (MIC) is 512

For this molecule ( `CN[C@H](CC(C)C)C(=O)N[C@H]1C(=O)N[C@@H](CC(N)=O)C(=O)N[C@H]2C(=O)N[C@H]3C(=O)N[C@H](C(=O)N[C@H](C(=O)O)c4cc(O)cc(O)c4-c4cc3ccc4O)[C@H](O)c3ccc(c(Cl)c3)Oc3cc2cc(c3O[C@@H]2O[C@H](CO)[C@@H](O)[C@H](O)[C@H]2O[C@H]2C[C@](C)(N)[C@H](O)[C@H](C)O2)Oc2ccc(cc2Cl)[C@H]1O` ), measured In vitro AB activity (MIC) is 2

Below are some molecules; for each one, tell me its In vitro AB activity (MIC).
1. CC(=O)NC[C@H]1CN(c2ccc(N3CCOCC3)c(F)c2)C(=O)O1
2. N#Cc1ccc(/C=C/c2nc3ccccc3c(=O)n2-c2cccc(C(=O)O)c2)cc1.[Na]

[2, 16]

---

Test: in vivo
Conditions: mouse, in vivo, po, 10 mg/kg
attribute.measured: AUC(0-t) (ng·h/mL)
Numbers only, in ng·h/mL.

For this compound ( `N#Cc1ccc(/C=C/c2nc3ccccc3c(=O)n2-c2cccc(C(=O)O)c2)cc1.[Na]` ), measured AUC(0-t) is 6550

---

Assay: in vivo
Details: ICR, mouse, in vivo, iv, 10 mg/kg
attribute.measured: concentration at 24 h (ng/mL)
One number for each entry, in ng/mL.

For this compound ( `N#Cc1ccc(/C=C/c2nc3ccccc3c(=O)n2-c2cccc(C(=O)O)c2)cc1.[Na]` ), measured concentration at 24 h is 142

---

Assay: in vivo
Conditions: female, ICR, mouse, in vivo, iv, 10 mg/kg
attribute.measured: half-life
Record the result as number plus unit.

For this compound ( `N#Cc1ccc(/C=C/c2nc3ccccc3c(=O)n2-c2cccc(C(=O)O)c2)cc1.[Na]` ), measured half-life is 22 h

---

Test: in vivo
Details: mouse, in vivo, iv, 10 mg/kg
attribute.measured: AUC(0-inf) (ng·h/mL)
Give bare numbers, in ng·h/mL.

For this compound ( N#Cc1ccc(/C=C/c2nc3ccccc3c(=O)n2-c2cccc(C(=O)O)c2)cc1.[Na] [Compound 2] ), measured AUC(0-inf) is 23500

---

Experiment: in vivo
Details: mouse, in vivo, iv, 10 mg/kg
attribute.measured: AUC(0-t) (ng·h/mL)
Numbers only, in ng·h/mL.

For this compound ( `N#Cc1ccc(/C=C/c2nc3ccccc3c(=O)n2-c2cccc(C(=O)O)c2)cc1.[Na]` ), measured AUC(0-t) is 19700

---

Assay: in vivo
Conditions: female, ICR, mouse, in vivo, iv, 10 mg/kg
attribute.measured: Vd
Record the result as number plus unit.

For this molecule ( N#Cc1ccc(/C=C/c2nc3ccccc3c(=O)n2-c2cccc(C(=O)O)c2)cc1.[Na] [Compound 2] ), measured Vd is 0.0076 L

---

Tested on: S. aureus NRS70
Assay: MIC, broth microdilution, S. aureus NRS70
Format: cell-based, Staphylococcus aureus
Conditions: Table 2.1, S. aureus NRS70
Procedure: MICs were evaluated following the CLSI microdilution method in BBL™ Mueller-Hinton II broth (Wikler et al., Clinical Laboratory Standards Institute Document M7-A7, 29 (2009)). Briefly, two-fold serial dilutions of compound were prepared in triplicate in 96-well plates and inoculated with 5×10^5 cfu/mL of the bacterial suspension. Plates were incubated at 37° C. for 16-20 hours.
attribute.measured: In vitro AB activity (MIC) (µg/mL)
One number for each entry, in µg/mL.

Solved entries (count: 3):
For this molecule ( CN[C@H](CC(C)C)C(=O)N[C@H]1C(=O)N[C@@H](CC(N)=O)C(=O)N[C@H]2C(=O)N[C@H]3C(=O)N[C@H](C(=O)N[C@H](C(=O)O)c4cc(O)cc(O)c4-c4cc3ccc4O)[C@H](O)c3ccc(c(Cl)c3)Oc3cc2cc(c3O[C@@H]2O[C@H](CO)[C@@H](O)[C@H](O)[C@H]2O[C@H]2C[C@](C)(N)[C@H](O)[C@H](C)O2)Oc2ccc(cc2Cl)[C@H]1O [vancomycin] ), measured In vitro AB activity (MIC) is 1

For this molecule ( N#Cc1ccc(/C=C/c2nc3ccccc3c(=O)n2-c2cccc(C(=O)O)c2)cc1.[Na] [Compound 2] ), measured In vitro AB activity (MIC) is 2

For this molecule ( CC(=O)NC[C@H]1CN(c2ccc(N3CCOCC3)c(F)c2)C(=O)O1 [linezolid] ), measured In vitro AB activity (MIC) is 1

Next:
For this molecule ( Cc1onc(-c2ccccc2)c1C(=O)N[C@@H]1C(=O)N2[C@@H]1SC(C)(C)[C@@H]2C(=O)O [oxacillin] ), measured In vitro AB activity (MIC) is 32
